Source of measurements: the supplement of paper PMC11208160

RUN_DESCRIPTION: recombinant barcode read abundance after kanamycin selection (control-corrected) (log10(CPM+1)); higher = more efficient recombination; sequences stand for … in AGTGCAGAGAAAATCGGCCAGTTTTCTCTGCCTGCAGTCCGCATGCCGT…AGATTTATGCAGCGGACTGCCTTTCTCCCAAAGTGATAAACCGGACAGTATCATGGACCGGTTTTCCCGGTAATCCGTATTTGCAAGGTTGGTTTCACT; site = the 11-nt target
OBSERVABLE: recombinant barcode read abundance (log10)
Answers are plain numbers.

Field: example entries. Status: answers known.
{"RESIDUE_CODES": "GGGAACCCTTGGGTTCTAACCTGTTGCAT (site AGGAACTCTAT)", "TEST_VALUE": 0.115}
{"RESIDUE_CODES": "GGGGCTTCTTGGGTTCTAACCTGTTGCTT (site GGGGCATCTAA)", "TEST_VALUE": 0.129}
{"RESIDUE_CODES": "TAGGCGCCTTGGGTTCTAACCTGTTGCTT (site TAGGCGCCTAA)", "TEST_VALUE": 1.03}
{"RESIDUE_CODES": "ACTAGGGCTTGGGTTCTAACCTGTTGCGG (site ACTAGGGCTCC)", "TEST_VALUE": 3.25}
{"RESIDUE_CODES": "TATAACTCTTGGGTTCTAACCTGTTGCCT (site GATAACTCTAG)", "TEST_VALUE": 0.0978}

Hey, can you go through the list below and give me recombinant barcode read abundance (log10) for every item?
1. CACTTAGCTTGGGTTCTAACCTGTTGCCT (site CACTTATCTAG)
2. TTCAAGTCTTGGGTTCTAACCTGTTGCCT (site TTCAAGTCTAG)
3. CCTGGAACTTGGGTTCTAACCTGTTGCTT (site CCTGGAACTAA)
4. GATAACGCTTGGGTTCTAACCTGTTGCCT (site GATAACGCTAG)

*A*
1. 0.0252
2. 0.33
3. 0.418
4. 1.05

*Q* Quick one: recombinant barcode read abundance (log10) for ATGTCCTCTTGGGTTCTAACCTGTTGCCA (site ATGTCCTCTTG) ?
*A* 1.02

* * *

RUN_DESCRIPTION: recombinant UMI read abundance after kanamycin selection (control-corrected) (log10(CPM+1)); higher = more efficient recombination; extreme values may be limits of the assay; sequences stand for … in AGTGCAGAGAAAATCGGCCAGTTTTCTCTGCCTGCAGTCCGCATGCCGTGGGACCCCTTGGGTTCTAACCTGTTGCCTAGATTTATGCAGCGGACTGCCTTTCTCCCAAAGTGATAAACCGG…AGGTTGGTTTCACT; site = the 11-nt donor
Short version: recombinant UMI read abundance (log10) at least 1 is Yes, less is No.

{"RESIDUE_CODES": "GTGGCAACATGGACCGGTTTTCCCGGTAATCCGTATTTGCG (site GTGGCAACTCG)", "GROUP": "Yes"}
{"RESIDUE_CODES": "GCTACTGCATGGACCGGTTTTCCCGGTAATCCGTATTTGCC (site GTTACTGCTGG)", "GROUP": "No"}
{"RESIDUE_CODES": "AATCCATCATGGACCGGTTTTCCCGGTAATCCGTATTTGTA (site AATCCATCTTA)", "GROUP": "Yes"}

*Q* Is reported recombinant UMI read abundance (log10) greater than or equal to 1 here: GTGCGAGCATGGACCGGTTTTCCCGGTAATCCGTATTTGCA (site GTTCGAGCTTG)
*A* Yes

*Q* Check this sequence for recombinant UMI read abundance (log10) at or above 1: TTGGAAACATGGACCGGTTTTCCCGGTAATCCGTATTTGCA (site CTGGAAACTTG)
*A* Yes

*Q* API: above_or_equal(metric=recombinant UMI read abundance (log10), cutoff=1) for item GTTAGAGCATGGACCGGTTTTCCCGGTAATCCGTATTTGGC (site GTTAGACCTGC)
*A* No

*Q* Could you please find out whether GACAACCCATGGACCGGTTTTCCCGGTAATCCGTATTTGGT (site GACAACCCTAC) has recombinant UMI read abundance (log10) that meets 1 or exceeds it?
*A* No

*Q* Does the reported recombinant UMI read abundance (log10) for AAGTCGACATGGACCGGTTTTCCCGGTAATCCGTATTTGGG (site TAGTCGACTCC) fall at or above the 1 mark?
*A* No

*Q* In plain terms: is recorded recombinant UMI read abundance (log10) at least 1 for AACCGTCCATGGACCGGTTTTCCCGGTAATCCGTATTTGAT (site AACCATCCTAT) ?
*A* No
